- tgt: WT ITK (His6-tagged human wild-type ITK kinase domain) (Homo sapiens, UniProt Q08881)
- Construct: Ni-NTA, Q Sepharose, Superdex 200
- Sequence (Q08881 357-620 limits assumed): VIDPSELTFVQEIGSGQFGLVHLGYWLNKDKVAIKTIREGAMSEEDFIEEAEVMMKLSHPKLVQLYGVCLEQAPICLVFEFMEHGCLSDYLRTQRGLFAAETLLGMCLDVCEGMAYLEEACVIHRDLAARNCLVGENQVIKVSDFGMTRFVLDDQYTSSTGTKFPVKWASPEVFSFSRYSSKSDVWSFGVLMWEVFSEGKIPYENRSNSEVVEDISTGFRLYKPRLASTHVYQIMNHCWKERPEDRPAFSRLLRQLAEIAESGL
- test name: ADP-Glo kinase assay
- Type: biochemical
- Description: ADP-Glo kinase assay on WT ITK (His6-tagged human wild-type ITK kinase domain)
// values below are reported log10 IC50
readout: log10 IC50 (log10 of the value in nM)

[
  {
    "compound": "COc1cc(C)c(Sc2cnc(NC(=O)c3ccc(CNC(C)C(C)(C)C)cc3)s2)cc1C(=O)N1CCN(C(C)=O)CC1 (centres unmarked) [A, BMS-509744]",
    "log10 IC50": 0.40
  },
  {
    "compound": "CC(=O)N1CCCC(n2nc(-c3cccc(C(=O)Nc4ccc(C(C)C)cc4)c3)c3c(N)ncnc32)C1 (centres unmarked) [E, Derivative of D]",
    "log10 IC50": 2.66
  },
  {
    "compound": "CCc1ccc2nc(Nc3cc(Cc4ccccc4)nc(N[C@H]4CC[C@H](O)CC4)n3)sc2c1 [G, GSK compound 13]",
    "log10 IC50": 0.54
  },
  {
    "compound": "COc1cc(C)c(Sc2cnc(NC(C)=O)s2)cc1C(=O)N1CCN(C(C)=O)CC1 [B, Derivative of A]",
    "log10 IC50": 2.41
  },
  {
    "compound": "CC(C)Oc1ccc2cccc(-n3cc(NC(N)=O)c(C(N)=O)n3)c2c1 [C, Pfizer compound 9]",
    "log10 IC50": 1.38
  }
]
